Origin of the recorded values: patent US20250066745A1

- Protocol: Luminescence activity assay of purified Gaussia luciferase mutants on coelenterazine derivative ZS2
- Format: biochemical
- Parameters: key: ratio of mutant luminescence intensity to wild-type Gaussia luciferase
- Experimental Conditions: Substrate ZS2 (Table 16)
Exercise: state measured Activity of mutant relative to wild-type Gaussia luciferase without the signal peptide for each of the molecules provided.

Sample records with Activity of mutant relative to wild-type Gaussia luciferase without the signal peptide:
K66R P84A E102K A104G E110A L124M V138E: Gaussia luciferase mutant (protein, SIGNAL (1)..(17), Gaussia luciferase mutant) MGVKVLFALICIAVAEAKPTENNEDFNIVAVASNFATTDLDADRGKLPGKKLPLEVLKEMEANARRAGCTRGCLICLSHIKCTAKMKKFIPGRCHTYEGDKKSGQGGIGAAIVDIPEIPGFKDMEPMEQFIAQVDLCEDCTTGCLKGLANVQCSDLLKKWLPQRCATFASKIQGQVDKIKGAGGD    2.637
F26I N27D V29A A30D V31I S33K A36N T37K L40P: Gaussia luciferase mutant (protein, SIGNAL (1)..(17), Gaussia luciferase mutant) MGVKVLFALICIAVAEAKPTENNEDIDIADIAKNFNKTDPDADRGKLPGKKLPLEVLKEMEANARKAGCTRGCLICLSHIKCTPKMKKFIPGRCHTYEGDKESAQGGIGEAIVDIPEIPGFKDLEPMEQFIAQVDLCVDCTTGCLKGLANVQCSDLLKKWLPQRCATFASKIQGQVDKIKGAGGD    0.026
H79K P84L V138D: Gaussia luciferase mutant (protein, SIGNAL (1)..(17), Gaussia luciferase mutant) MGVKVLFALICIAVAEAKPTENNEDFNIVAVASNFATTDLDADRGKLPGKKLPLEVLKEMEANARKAGCTRGCLICLSKIKCTLKMKKFIPGRCHTYEGDKESAQGGIGEAIVDIPEIPGFKDLEPMEQFIAQVDLCDDCTTGCLKGLANVQCSDLLKKWLPQRCATFASKIQGQVDKIKGAGGD    0.068
Q152R T167G S170N K178S A182L G183N: Gaussia luciferase mutant (protein, SIGNAL (1)..(17), Gaussia luciferase mutant) MGVKVLFALICIAVAEAKPTENNEDFNIVAVASNFATTDLDADRGKLPGKKLPLEVLKEMEANARKAGCTRGCLICLSHIKCTPKMKKFIPGRCHTYEGDKESAQGGIGEAIVDIPEIPGFKDLEPMEQFIAQVDLCVDCTTGCLKGLANVRCSDLLKKWLPQRCAGFANKIQGQVDSIKGLNGD    0.737
F26C V29L A30D V31L A32V S33G L40I: Gaussia luciferase mutant (protein, SIGNAL (1)..(17), Gaussia luciferase mutant) MGVKVLFALICIAVAEAKPTENNEDCNILDLVGNFATTDIDADRGKLPGKKLPLEVLKEMEANARKAGCTRGCLICLSHIKCTPKMKKFIPGRCHTYEGDKESAQGGIGEAIVDIPEIPGFKDLEPMEQFIAQVDLCVDCTTGCLKGLANVQCSDLLKKWLPQRCATFASKIQGQVDKIKGAGGD    0.312
Q152R S154F Q163D S170T G174N K178T A182Y: Gaussia luciferase mutant (protein, SIGNAL (1)..(17), Gaussia luciferase mutant) MGVKVLFALICIAVAEAKPTENNEDFNIVAVASNFATTDLDADRGKLPGKKLPLEVLKEMEANARKAGCTRGCLICLSHIKCTPKMKKFIPGRCHTYEGDKESAQGGIGEAIVDIPEIPGFKDLEPMEQFIAQVDLCVDCTTGCLKGLANVRCFDLLKKWLPDRCATFATKIQNQVDTIKGYGGD    0.003
F26G N27D V29L A30V V31I A32G S33D A36W T37S: Gaussia luciferase mutant (protein, SIGNAL (1)..(17), Gaussia luciferase mutant) MGVKVLFALICIAVAEAKPTENNEDGDILVIGDNFWSTDLDADRGKLPGKKLPLEVLKEMEANARKAGCTRGCLICLSHIKCTPKMKKFIPGRCHTYEGDKESAQGGIGEAIVDIPEIPGFKDLEPMEQFIAQVDLCVDCTTGCLKGLANVQCSDLLKKWLPQRCATFASKIQGQVDKIKGAGGD    0.027
Q152R Q163T T167S S170N G174K K178S A182Y G183A: Gaussia luciferase mutant (protein, SIGNAL (1)..(17), Gaussia luciferase mutant) MGVKVLFALICIAVAEAKPTENNEDFNIVAVASNFATTDLDADRGKLPGKKLPLEVLKEMEANARKAGCTRGCLICLSHIKCTPKMKKFIPGRCHTYEGDKESAQGGIGEAIVDIPEIPGFKDLEPMEQFIAQVDLCVDCTTGCLKGLANVRCSDLLKKWLPTRCASFANKIQKQVDSIKGYAGD    0.413

API: the following record is the query input.
IN: Would you kindly share the measured Activity of mutant relative to wild-type Gaussia luciferase without the signal peptide for Q152R Q163S T167S S170D G174K Q175E K178N A182M: Gaussia luciferase mutant (protein, SIGNAL (1)..(17), Gaussia luciferase mutant) MGVKVLFALICIAVAEAKPTENNEDFNIVAVASNFATTDLDADRGKLPGKKLPLEVLKEMEANARKAGCTRGCLICLSHIKCTPKMKKFIPGRCHTYEGDKESAQGGIGEAIVDIPEIPGFKDLEPMEQFIAQVDLCVDCTTGCLKGLANVRCSDLLKKWLPSRCASFADKIQKEVDNIKGMGGD ?
OUT: 3.139
